molecular target: human GLP-1 receptor (human) (UniProt P43220); assay: cell-based or functional assay
Sequence (P43220 24-463): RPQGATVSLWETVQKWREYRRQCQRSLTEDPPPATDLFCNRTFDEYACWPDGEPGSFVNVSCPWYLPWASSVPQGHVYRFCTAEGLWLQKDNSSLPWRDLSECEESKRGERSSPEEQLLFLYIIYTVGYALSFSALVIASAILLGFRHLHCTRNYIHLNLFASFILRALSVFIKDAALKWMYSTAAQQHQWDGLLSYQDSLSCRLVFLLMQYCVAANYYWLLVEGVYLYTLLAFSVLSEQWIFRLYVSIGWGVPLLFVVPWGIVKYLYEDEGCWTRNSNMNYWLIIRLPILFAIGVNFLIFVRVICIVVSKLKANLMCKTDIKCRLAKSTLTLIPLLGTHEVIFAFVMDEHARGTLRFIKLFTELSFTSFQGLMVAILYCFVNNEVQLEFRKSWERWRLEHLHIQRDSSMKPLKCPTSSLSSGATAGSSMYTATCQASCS
quantity-measured: cAMP EC50 (nM)

P. IP197 (Fc fusion) YSEGTFTSDVSSYMERQAIDEFIAWLLAGAAAGGSGSTASSGSGSATGGGGAATHTCPPCPAPEF
Q. IP412 (Fc fusion) YSEGTFTSDYSKLLEEEANRLFIEWLLAGGGGGGSGGGGSGGGGSGGGGSATHTCPPC
*Q* Rank P against Q by their cAMP EC50 values and give the higher one. Give the label under which the chosen entry appears.
*A* P
(P: 0.78 nM, Q: 0.073 nM)

I. IP250 (Fc fusion) YSEGTFTSDVSIAMDRQAIDEFIAWLLKGGAAAGGSGSTASSGSGSATGGGGAATHTCPPCPAPEF
II. IP224 (Fc fusion) YSEGTFTSDVSSYMERQAIDEFIAWLLGGGAAAGGSGSTASSGSGSATGGGGAATHTCPPCPAPEF
*Q* Rank I against II by their cAMP EC50 values and give the higher one. Give the label under which the chosen entry appears.
*A* I
(I: 1.1 nM, II: 0.57 nM)

a. IP207 (Fc fusion) YAEGTFISDYSIAMDKIHQQDFVNWLLAQKGKKNDWKHNITQAAAGGSGSTASSGSGSATGGGGAATHTCPPCPAPELL
b. IP308 (Fc fusion) YSEGTFISDYSIALAAAAAKDFVNWLLAGGGGGGGSGGGGSGGGGSGGGGSATHTCPPC
c. IP373 (Fc fusion) YSEGTHTSDFSKLLERQAIDEFIAWLLKGGAAAGGSGSTASSGSGSATGGGGAATHTCPPC
d. IP321 (Fc fusion) YSEGTFISDYSIAMDKIHQQDFVNWLLAGGAAAGGSGSTASSGSGSATGGGGAATHTCPPC
*Q* Arrange items by their cAMP EC50 values in increasing order. Submit the labels in the order that the ranking request calls for.
*A* c, d, b, a

1. IP343 (Fc fusion) YSEGTFTSDYAAAAERQAIDAFAAWLAAAAGGGGGSGGGGSGGGGSGGGGSA
2. IP330 (Fc fusion) YSEGTFTSDYSKLLERQAIDEFIALLLKGGGGGGGSGGGGSGGGGSGGGGSGGGGSGGGGSA
*Q* Rank 1 against 2 by their cAMP EC50 values and give the higher one. Give the label under which the chosen entry appears.
*A* 1

I. IP247 (Fc fusion) YSEGTFTSDYSKLLEKIHQQLFIEWLVKGPAAAGGSGSTASSGSGSATGGGGAATHTCPPCPAPEF
II. IP369 (Fc fusion) YSEGTFTSDYSKLLERQAIDEFIAHLLKGGGGGGGSGGGGSGGGGSGGGGSGGGGSGGGGSA
III. IP350 (Fc fusion) YSEGTFTSDYSKLLERQAIDEFIAGLLKGGGGGGGSGGGGSGGGGSGGGGSGGGGSGGGGSA
*Q* List items by cAMP EC50 in falling order. Submit the labels in the order that the ranking request calls for.
*A* I, III, II
